Values compiled from patent EP4591887A1.

Consider the following binders; for each one, report its internalization on HepG2 cells (pHAb dye-labelled anti-hIgG secondary antibody, 48 h): Top.
- Measured target: human GPC3 (Glypican-3) (human, UniProt P51654 25-580)
- Run description: cell-based or functional assay

Worked examples follow.
Binder	Endpoint result
Hu 52H5D3B8-8 (antibody, human IgG1, kappa, V domains shown, also called humanized GPC3 antibody Hu 52H5D3B8-8) VH: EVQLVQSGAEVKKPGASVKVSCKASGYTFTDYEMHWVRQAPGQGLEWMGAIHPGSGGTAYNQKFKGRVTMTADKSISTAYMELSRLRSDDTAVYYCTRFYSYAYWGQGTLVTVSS VL: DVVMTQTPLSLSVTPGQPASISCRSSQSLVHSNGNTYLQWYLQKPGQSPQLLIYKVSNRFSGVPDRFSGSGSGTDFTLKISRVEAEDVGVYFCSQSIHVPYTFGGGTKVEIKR	62400
Y035 antibody (CARSGEN Therapeutics), humanized (antibody, V domains shown) VH: EVQLVQSGAEVKKPGASVKVSCKASGYTHSDYEMHWVRQAPGQGLEWMGAIHPGSGDTAYNQRFKGRVTITADKSTSTAYMELSSLRSEDTAVYYCARFYSYAYWGQGTLVTVSA VL: DIVMTQTPLSLPVTPGEPASISCRSSQSLVHSNGNTYLQWYLQKPGQSPQLLIYKVSNRFSGVPDRFSGSGSGTDFTLKISRVEAEDVGVYYCSQSIYVPYTFGQGTKLEIKR	52000
Hu 52H5D3B8-7 (antibody, human IgG1, kappa, V domains shown, also called humanized GPC3 antibody Hu 52H5D3B8-7) VH: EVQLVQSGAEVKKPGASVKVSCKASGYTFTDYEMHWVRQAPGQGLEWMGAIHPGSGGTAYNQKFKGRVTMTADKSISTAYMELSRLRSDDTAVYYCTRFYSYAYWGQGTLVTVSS VL: DVVMTQTPLSLSVTPGQPASISCRSSQSLVHSNGNTYLQWYLQKPGQSPQLLIYKVSNRFSGVPDRFSGSGSGTDFTLKISRVEAEDVGVYYCSQSIHVPYTFGGGTKVEIKR	58600

Please report the recorded internalization on HepG2 cells (pHAb dye-labelled anti-hIgG secondary antibody, 48 h): Top for Hu 52H5D3B8-7/8 CDRs with Y035 FRs (antibody, V domains shown) VH: EVQLVQSGAEVKKPGASVKVSCKASGYTHSDYEMHWVRQAPGQGLEWMGAIHPGSGGTAYNQKFKGRVTITADKSTSTAYMELSSLRSEDTAVYYCARFYSYAYWGQGTLVTVSA VL: DIVMTQTPLSLPVTPGEPASISCRSSQSLVHSNGNTYLQWYLQKPGQSPQLLIYKVSNRFSGVPDRFSGSGSGTDFTLKISRVEAEDVGVYYCSQSIHVPYTFGQGTKLEIKR . 59200
